Test Summary: modulators of CD8 T cell-vesicle binding, confirmation, cherry-picked primary hits, two concentrations (AID 2810)
Condition Set: 2C CD8+ T cell-vesicle binding, flow cytometry; at 15.4 µM
Hit rate of the full screen: of about 1,200 compounds, about 65 (5%) were called active.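 How the source made its calls: active means at either tested dose, response and 90th-percentile vesicle-stain brightness of CD8 cells under set limits and under 9% cells vesicle-bound; inactive means the rest.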 Many of the other results were omitted from the sample, so actives are more common in it than they were.
Outcomes you can answer with include only these: yes for active, no for inactive

(Q) Each molecule tested received a call. Report the one for COc1ccc(CN2C(=O)C(C)Nc3ncnc(N4CCN(c5ccccn5)CC4)c32)cc1 (stereo not given) .
(A) yes

---

In this section, each of the compounds is paired with its reported double positive events.
Test Summary: modulators of CD8 T cell-vesicle binding, confirmation, cherry-picked primary hits, two concentrations (AID 2810)
Condition Set: 2C CD8+ T cell-vesicle binding, flow cytometry; CD8+/vesicle+ events; at 15.4 µM; stronger effect = lower value
In all, about 1,200 compounds went through this assay and about 65 (5%) were called active. Only a selection was taken, and actives are over-represented in it overall.
# unit: % | format: bare number

Compound	Reading Unit	double positive events
COc1ccc(C(=O)OCC(=O)NC(=O)NC2CCCC2)c(O)c1	%	9.4

(Q) Fill in the blank: the reported double positive events of Cc1ccccc1N=C1SC(CC(=O)Nc2ccc3ccccc3c2)C(=O)N1Cc1ccccn1 (centres undefined) is ____.
(A) 25.6

(Q) Fill in the blank: the reported double positive events of `Cc1cccc(C)c1OCc1nnc(NC(=O)CSc2ccc(Cl)cc2)s1` is ____.
(A) 24.4

(Q) Fill in the blank: the reported double positive events of `CCn1cc(CNC(=O)c2ccc(Cl)c([N+](=O)[O-])c2)c(C)n1` is ____.
(A) 8.4

# credit: PubChem BioAssay AID2810
